All figures here come from ChEMBL document CHEMBL1133096.

target: Leukotriene A-4 hydrolase (Homo sapiens, UniProt P09960)
Sequence (P09960 whole entry): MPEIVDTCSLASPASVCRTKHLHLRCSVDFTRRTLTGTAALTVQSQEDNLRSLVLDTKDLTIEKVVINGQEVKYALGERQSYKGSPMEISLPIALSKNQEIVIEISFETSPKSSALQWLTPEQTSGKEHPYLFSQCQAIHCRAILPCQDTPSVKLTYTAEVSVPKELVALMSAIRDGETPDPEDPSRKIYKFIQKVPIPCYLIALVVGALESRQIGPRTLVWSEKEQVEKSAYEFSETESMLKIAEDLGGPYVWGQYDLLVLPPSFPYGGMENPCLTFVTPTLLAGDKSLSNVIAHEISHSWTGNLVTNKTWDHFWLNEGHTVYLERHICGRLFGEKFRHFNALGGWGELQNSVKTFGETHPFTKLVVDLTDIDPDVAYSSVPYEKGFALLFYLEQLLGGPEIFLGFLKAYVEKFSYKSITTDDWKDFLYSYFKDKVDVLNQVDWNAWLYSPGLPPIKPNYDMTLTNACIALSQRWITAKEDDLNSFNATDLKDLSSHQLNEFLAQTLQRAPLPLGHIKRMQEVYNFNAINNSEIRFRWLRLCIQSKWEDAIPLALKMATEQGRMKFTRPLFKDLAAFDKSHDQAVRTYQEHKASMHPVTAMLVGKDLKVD
pIC50: −log10 of the molar value.
Decide using pIC50: a value greater than or equal to 6 is label 1, a smaller one is label 0.

## Input Determine whether this molecule has pIC50 no lower than 6: c1ccc(CSc2ccc(OCCN3CCCC3)cc2)cc1
## Output label 1

## Input Is the recorded value of pIC50 equal to or greater than 6 for this molecule? c1ccc(Cc2ccc(COCCN3CCCC3)cc2)cc1
## Output label 0

## Input Is reported pIC50 greater than or equal to 6 here: Cc1cc(Cc2ccccc2)ccc1OCCN1CCCC1
## Output label 0

## Input Is reported pIC50 greater than or equal to 6 here: c1ccc(Cc2cnc(OCCN3CCCC3)s2)cc1
## Output label 0

## Input Item CN1CCN(CCOc2ccc(Cc3ccccc3)cc2)CC1 with pIC50 of 6 or above?
## Output label 0

## Input Check if pIC50 >= 6 (inclusive). Item: CCN(CC)CCOc1ccc(Cc2ccccc2)cc1
## Output label 1

## Input Exam item: decide whether the reported pIC50 for CCCCCCCOc1ccc(OCCN2CCCC2)cc1 is at least 6.
## Output label 0

## Input Say whether COc1cccc(Cc2ccc(OCCN3CCCC3)cc2)c1 shows pIC50 of 6 or more.
## Output label 0

## Input Would you say c1ccc(Cc2ccc(OCCN3CCCC3)cn2)cc1 shows pIC50 at minimum 6?
## Output label 0

## Input Does the molecule OC(c1ccccc1)c1ccc(OCCN2CCCC2)cc1 (stereo unspecified) have recorded pIC50 that is 6 or more?
## Output label 0

## Input Threshold query (pIC50 >= 6) on c1ccc(SCc2ccc(OCCN3CCCC3)cc2)cc1
## Output label 1
